Entry source: patent US20200222537A1

- assay notes: Solubilization of chromophores in solvents
- conditions: 1 M NaOH, aqueous buffer
measured attribute: solubility
Numeric answer plus unit only.

Entry Cc1cc(O)c2c(=O)c3c(O)cc(O)c4c5c(O)cc(O)c6c(=O)c7c(O)cc(C)c8c1c2c(c34)c(c78)c65 needs its solubility filled in; supply it.
500 µg/mL
